B1: HDV Ribozyme (parent)
chain: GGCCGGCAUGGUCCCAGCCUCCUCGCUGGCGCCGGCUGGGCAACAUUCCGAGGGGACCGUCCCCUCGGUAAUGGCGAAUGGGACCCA

Variants of: B1
Experiment: self-cleavage, relative activity (ratio to wild type); higher = more cleavage; co-transcriptional
QUANTITY: self-cleavage
One number for each entry.

Here is how some variants turned out for self-cleavage.
> print(dat)
   mutation.code  measurement
1      U20G G73A        0.113
2      A42C A77C        0.161
3      A45G C85A         1.01
4      G25U C48A        0.332
5      G11A U60A        0.356

For each of the items listed, what is its self-cleavage?
1. C58G G82U
2. C61U G82A
3. G11A U79C
4. G29C C61A
5. G2A G28U

Result:
0.534
0.325
0.161
0.0791
0.0364

Q: Which self-cleavage value belongs to C26A C57U ?
Result: 0.959
